Assay: binders of probe aFST on microarray, primary screen, stem cell growth factor project, biochemical, small-molecule microarray, fluorescence 635/667 (AID 1086);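 further: score merges 667 nm fluorescence with signal-to-noise of each printed compound spot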
Details: higher = more signal
Entry flag: Criterion met if composite z-score reaches 0.5; Criterion not met if it does not.

| compound | assignedClass |
| --- | --- |
| COc1ccc([Si](C)(C)[C@@H]2[C@@H](CC(=O)N3CCC[C@H]3CO)O[C@]3(C(=O)N(c4ccccc4)c4ccccc43)[C@H]2C)cc1 | Criterion met |
| Cc1ccc([C@@H]2C[C@@H](Sc3ccccc3)[C@H](C(=O)O)CN2S(=O)(=O)c2ccc(C)cc2)cc1 | Criterion met |
| CC(C)C(=C=CC[C@@H](O)c1ccc(OCCO)cc1)C[C@@H](O)COCc1ccccc1 | Criterion not met |
| CCC(CC)C(O)C1C=CC2C(=O)NC(=O)C2N1Nc1ccccn1 (stereo unspecified) | Criterion not met |
| CC(C)OC(=O)C=C1C[C@@H](c2ccccn2)O[C@@H](c2ccccn2)O1 | Criterion not met |
| CC[C@@H]1C=C(C(=O)O)[C@H](c2ccc(Br)cc2)N1S(=O)(=O)c1ccc(C)cc1 | Criterion met |
| CCC(CC)C(O)C1C=CC2C(=O)NC(=O)C2N1Nc1ccc(Cl)cc1Cl (stereo unspecified) | Criterion met |
| CN1C(=O)C2C=CC(C(O)c3ccc([N+](=O)[O-])cc3)N(N3CCCCC3)C2C1=O (stereo unspecified) | Criterion met |
| CC1(C)C2C=C(C(O)C3C=CC4C(=O)NC(=O)C4N3Nc3ccc(Cl)cc3Cl)C[C@@H]1C2 (stereo partly specified) | Criterion met |
| C[N+](C)(C)CCCCCCNC(=O)[C@@H]1C[C@@H]2C(=O)N[C@@H](Cc3ccccc3)C(=O)N2[C@@H]1c1cccc(OCCO)c1 | Criterion not met |
| CC(C)N1C(=O)[C@@]2(Cc3ccccc31)c1ccccc1C(=O)N(Cc1ccccc1Cl)[C@H]2c1ccc(CO)cc1 | Criterion not met |
| CN(C)CCCC[C@@H]1NC(=O)[C@@H]2C[C@H](C(=O)NCCCCCCN)[C@H](c3cccc(OCCO)c3)N2C1=O | Criterion met |
| CN(C)CCCC[C@@H]1NC(=O)[C@H]2C[C@@H](C(=O)NCCCCCCN)[C@@H](c3ccc(O)cc3)N2C1=O | Criterion met |
| CC(C)C(=C=CC[C@H](O)c1ccc(OCCO)cc1)CCO | Criterion not met |
| COc1ccccc1CN1C(=O)c2ccccc2[C@@]2(Cc3ccccc3N(CC(C)C)C2=O)[C@@H]1c1ccc(CO)cc1 | Criterion not met |
| Cc1ccccc1C(O)C1C=CC2C(=O)N(c3ccccc3)C(=O)C2N1Nc1ccc(C(C)C)cc1 (stereo unspecified) | Criterion met |
| COc1cc(C(O)C2C=CC3C(=O)NC(=O)C3N2Nc2ccccn2)cc(OC)c1OC (stereo unspecified) | Criterion not met |
| COCCOC(=O)N1C(=O)[C@@]2(c3cc(C#Cc4ccc(OC)cc4)ccc31)[C@H](c1ccc(O)cc1)N1[C@H](c3ccccc3)[C@H](c3ccccc3)OC(=O)[C@H]1[C@@H]2C(=O)N1CCc2cc(OC)c(OC)cc2C1 | Criterion met |
| C=C(/C(=C/C[C@H](OC(C)=O)c1ccc(CO)o1)c1cc(C(=O)OC)ccc1OC)C(C)C | Criterion not met |
| CC(=O)NCCCC[C@@H]1NC(=O)[C@@H]2C[C@H](C(=O)NCCCCCNC(=O)CS)[C@H](c3cccc(OCCO)c3)N2C1=O | Criterion not met |
| COc1ccc(CCNC(=O)[C@@]2(C)c3ccccc3C(=O)N(C(C)C)[C@H]2c2ccc(CO)cc2)cc1 | Criterion met |
| CC(C)NC(=O)[C@@H]1c2ccccc2C(=O)N(C2Cc3ccccc3C2)[C@H]1c1ccc(CO)cc1 | Criterion not met |
| CCOC(=O)C[C@H]1[C@H](OC(=O)c2ccc(C(=O)c3ccccc3)cc2)[C@@H](NC(=O)c2ccccc2)c2cc(OCCCO)ccc2N1C(=O)Cc1ccc(OC)cc1 | Criterion not met |
| COc1ccc([C@H]2OC[C@@H]3C[C@@H](Cc4ccccc4)C(=O)N32)cc1 | Criterion not met |
| CC1CC/C=C\[C@H]2OC34C=CCN(C(C)(C)C)C(=O)[C@H]3N(CCO)C(=O)[C@@H]4C2C(=O)O1 (stereo partly specified) | Criterion not met |
| C=C(CC1([C@@H](NP(=O)(c2ccccc2)c2ccccc2)[C@H]2C[C@@H]2CCCC)CC1)c1ccccc1 | Criterion met |
| Cc1ccc(S[C@]2(C(=O)NCCCN(C)C)CC(=O)N(Cc3cc(C(F)(F)F)cc(C(F)(F)F)c3)[C@@H]2c2ccc(CO)cc2)cc1 | Criterion not met |
| C=CCN1C(=O)[C@]2(O[C@H](CCn3cc([C@H](O)c4ccccc4)nn3)[C@@H]([Si](C)(C)c3ccc(OC)cc3)[C@@H]2C)c2cc(N3CCC3=O)ccc21 | Criterion not met |
| C=CCC(OC(C)=O)[C@@H]1[C@@H](N(Cc2ccc(-c3cccc(C(F)(F)F)c3)o2)C(=O)c2ccc(C)cc2)c2cc(OCCCO)ccc2N1C(=O)Cc1ccc2ccccc2c1 (stereo partly specified) | Criterion not met |
| CCN(CC)c1ccc(N2CC=CC34O[C@@H]5C=CCCOC(=O)C5[C@H]3C(=O)N(CCCCCCO)[C@@H]4C2=O)cc1 (stereo partly specified) | Criterion not met |
